This collection of values is drawn from patent US20230234943A1.

For each entry below, report its IC50 value.
Biological target: Human TREX1 enzyme (amino acids 1-242) (Homo sapiens)
Sequence (Q9NSU2 1-242): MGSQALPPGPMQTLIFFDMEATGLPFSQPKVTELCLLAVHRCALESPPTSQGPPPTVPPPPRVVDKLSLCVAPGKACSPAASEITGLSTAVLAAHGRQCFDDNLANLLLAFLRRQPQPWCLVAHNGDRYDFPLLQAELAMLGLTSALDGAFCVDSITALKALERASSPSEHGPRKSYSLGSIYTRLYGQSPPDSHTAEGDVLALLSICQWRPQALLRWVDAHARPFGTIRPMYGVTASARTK

Study these solved cases before continuing.
COc1cc(-c2nc3cc(N4CC(C#N)C4)ccc3[nH]2)cc(O)c1O :: > 100 µM
COc1cc(-c2nc3ccccc3n2C2CCC2)c(C2CC2)c(O)c1O :: 10 to 100 µM
COc1cc(-c2nc3cc(N4CCC4)c(C)cc3[nH]2)cc(O)c1O :: 1 to 10 µM
COc1cc(-c2nc3cc(N4CCOCC4)ccc3n2C2CCOC2)cc(O)c1O (stereo not drawn) :: 10 to 100 µM
COc1cc(-c2nc3ccncc3[nH]2)cc(O)c1O :: 10 to 100 µM

// for each compound below, give its IC50
1. O=C(O)c1ccc(-c2nc3cc(N4CCC4)ccc3[nH]2)cc1O
2. COc1cc(-c2nc3cc(NC(=O)c4ccccn4)ccc3n2C2(C)COC2)c(F)c(O)c1O
3. COc1cc(-c2nc3c(NC(C)=O)cccc3n2C2(C)COC2)c(F)c(O)c1O
4. COc1cc(-c2nc3cc(N4CCNC4=O)ccc3n2C2(C)COC2)c(F)c(O)c1O

["10 to 100 µM", "≤ 0.1 µM", "0.1 to 1 µM", "≤ 0.1 µM"]

// for each compound below, give its IC50
1. O=C(O)c1ccc(-c2nc3cc(N4CCN(c5cccnc5)CC4)ccc3[nH]2)cc1O
2. COc1cc(-c2nc3cc(O)ccc3[nH]2)c(C)c(O)c1O
3. COc1cc(-c2nc3cc(N4CCN(C(=O)c5ccccc5C)CC4)ccc3[nH]2)cc(O)c1O
4. COc1cc(-c2nc3ccccc3n2C2CN(C)C2)c(C)c(O)c1O

["10 to 100 µM", "10 to 100 µM", "1 to 10 µM", "> 100 µM"]

// for each compound below, give its IC50
1. COc1cc(-c2nc3ccc(-c4ccccn4)cc3n2C2(C)COC2)c(F)c(O)c1O
2. COc1cc(-c2nc3ccccc3n2C2COC2)c(C)c(O)c1O

0.1 to 1 µM
10 to 100 µM
